- System: OVCAR-8 ovarian
- test.details: NCI-60 one-dose screen, 48 h
- condition.summary: 10 µM unless noted
Compounds without any hit were thinned out: in the full panel of roughly 83,000, 20% have a hit. The source made the active and inactive calls. The calls were made as follows: active = growth percent below 10; inactive = the rest.
// classify into True (active), False (inactive)

Exam item: Record request — test call for C=C(CNCCc1ccc(O)cc1)[C@@H]1CC[C@]2(COC3CCCCO3)CC[C@]3(C)[C@H](CC[C@@H]4[C@@]5(C)CCC(N)C(C)(C)[C@@H]5CC[C@]43C)[C@@H]12 (stereo partly drawn)
Marked response: True

Exam item: Please state the recorded outcome for this compound: O=C1NC(=S)S/C1=C\N1N=C(c2ccc(Cl)cc2)CC1c1ccc(F)cc1 (stereo not drawn)
Marked response: False

Exam item: Identify the outcome logged in this assay for the compound shown: N#Cc1cnn2c(-c3ccc(Cl)cc3)nc(NCCc3ccccc3)nc12
Marked response: False

Exam item: For this compound, state the assay outcome: CCCc1nc2ccccn2c1Nc1ccc(C(=O)NO)cc1
Marked response: False

Exam item: Which outcome was entered for the compound c1ccc2c(c1)nc(-n1ccnc1)c1nc3ccccc3n12 in this test?
Marked response: False

Exam item: What outcome does the record of this test show for C=C1C(=O)O[C@H]2[C@H]1CC/C(COC(=O)/C=C\C(=O)NCc1ccc(Cn3c(=O)sn(-c4ccc(Cl)cc4)c3=O)cc1)=C\CC[C@@]1(C)O[C@@H]21 ?
Marked response: True

Exam item: Please share the test call associated with CO/C(=C1/NC(=O)C(Cc2ccc(O)c(Br)c2)N(C)C(=O)C(C)NC(=O)CCC/C=C(\C)CCC(C)OC1=O)c1ccccc1 (stereo not drawn) .
Marked response: True

Exam item: Give the logged outcome of this assay for the following compound: COc1ccc(C2=NC(=O)NC2c2ccc(OC)cc2)cc1 (stereo not drawn)
Marked response: False

Exam item: Name the outcome recorded for C=C1C(=O)O[C@H]2[C@H]1CC/C(Cn1cc(CNCCc3c[nH]c4ccccc34)nn1)=C\CC[C@@]1(C)O[C@@H]21 in the assay.
Marked response: False

Exam item: Could you please tell me the result logged for Nc1ccc(-c2cc3c(Nc4ccc(OCc5cccc(F)c5)c(Cl)c4)ncnc3s2)cc1 in this assay?
Marked response: False

Exam item: Could you please tell me the result logged for Clc1ccc(-c2cn(-c3ccccc3)c(-c3ccccc3)n2)cc1 in this assay?
Marked response: False

Exam item: Answer briefly: the call reported for CCN(CC)CCOC(=O)Nc1ccccc1Cl in this assay.
Marked response: False

Exam item: Test call, this compound: C[C@@H]1C(=O)N(C[C@@H](Cc2ccccc2)NC(=O)OCc2ccccc2)[C@]1(Cc1ccccc1)C(=O)OCc1ccccc1
Marked response: False

Exam item: In this assay, the call recorded for Cl.[Pt].[c-]1ccccc1-c1ccccn1.c1ccc(P(c2ccccc2)C([PH+](c2ccccc2)c2ccccc2)[PH+](c2ccccc2)c2ccccc2)cc1 was what?
Marked response: False

Exam item: Any idea what this test logged for Cc1csc(NC(=O)c2sc3nc(-c4cccs4)ccc3c2N)n1 ?
Marked response: False

Exam item: Name the outcome recorded for COc1ccc(C2CC(c3cnccn3)=NN2)cc1OC (stereo not drawn) in the assay.
Marked response: False

Exam item: Called result for COc1ccc(C2CC(c3ccc4ccccc4c3)=NN2c2nc(O)c(C3=c4cc(Cl)ccc4=NC3=O)s2)cc1 (stereo not drawn)
Marked response: True

Exam item: Returns: the outcome recorded for C/C(=N\NC(=O)Cn1c(-c2ccc(S(C)(=O)=O)cc2)nc2cc(Cl)ccc21)c1ccc(Cl)cc1 in this assay.
Marked response: False

Exam item: Tell me the assay call for Cc1ccc(/C(=N\N=C(N)N)c2ccccc2)cc1 please.
Marked response: False

Exam item: Any idea what this test logged for O=C1NN(C(=O)c2ccc(O)cc2)C(c2ccccc2)=N/C1=C\c1cn(-c2ccccc2)nc1-c1ccccc1 ?
Marked response: False

Exam item: Outcome logged for C=C(C)C1CCC(=C)C2CCC3(C)OC12/C=C(/COC(C)=O)CCC3O (stereo not drawn) in this assay:
Marked response: False

Exam item: Lab log entry: N#C/C(=C\c1ccc2c(c1)OCO2)n1nnc2ccccc21 — outcome as called in the assay?
Marked response: False

Exam item: Given COc1ccc2c(c1)/C(=C\c1sc(=S)[nH]c1O)C(C(=O)O)=N2 , state the outcome it received in this test.
Marked response: False

Where do these numbers come from? They come from PubChem BioAssay (NCI).
